- target.desc: HIV-1 RT (Human immunodeficiency virus type 1 group M subtype B, UniProt P04585)
- experiment.description: HIV Reverse Transcriptase Assay (RNA-dependent DNA polymerase activity, 3H-dCTP incorporation)
- Type: biochemical
- measurement.conditions: 60 nM HIV-RT, tRNA-Lys3 primer/viral RNA template, 45 minutes, room temperature, 0.7% DMSO
measured.endpoint: inhibition at 10 µM
# output: numeric value plus its unit

Solved entries:
INSERT INTO results (compound, value_reported) VALUES
  ('Cc1nc2cnccc2n1-c1ccc(Cn2c(=O)sc3cc(F)ccc32)cc1 [Example 2]', '76%'),
  ('CC(C)c1nc2cnccc2n1-c1ccc(Cn2c(=O)sc3ccccc32)cc1 [Example 4]', '23%'),
  ('COc1ccc2c(c1)sc(=O)n2Cc1ccc(-n2c(C)nc3cnccc32)cc1 [Example 6]', '22%');

Q: // inhibition at 10 µM lookup, key: Cc1ccc2c(c1)sc(=O)n2Cc1ccc(-n2c(C)nc3cnccc32)cc1 [Example 5]
Result: 30%

Q: // inhibition at 10 µM lookup, key: Cc1nc2cnccc2n1-c1ccc(Cn2c(=O)sc3cc(Cl)ccc32)cc1 [Example 7]
Result: 45%

----------
- target.desc: HIV-1 RT (Human immunodeficiency virus type 1 group M subtype B, UniProt P04585)
- experiment.description: HIV Reverse Transcriptase Assay (RNA-dependent DNA polymerase activity, 3H-dCTP incorporation)
- Assay type: biochemical
- measurement.conditions: 60 nM HIV-RT, tRNA-Lys3 primer/viral RNA template, 45 minutes, room temperature, 0.7% DMSO
measured.endpoint: inhibition at 10 µM
# output: numeric value plus its unit

Solved entries:
INSERT INTO measurements (compound, measured_endpoint, value_reported) VALUES
  ('Cc1nc2cnccc2n1-c1ccc(Cn2c(=O)sc3ccccc32)cc1 [Example 1]', 'inhibition at 10 µM', '78%'),
  ('COc1ccc2sc(=O)n(Cc3ccc(-n4c(C)nc5cnccc54)cc3)c2c1 [Example 8]', 'inhibition at 10 µM', '41%'),
  ('Cc1nc2cnccc2n1-c1ccc(Cn2c(=O)oc3ccccc32)cc1 [Example 13]', 'inhibition at 10 µM', '61%'),
  ('Cc1nc2ccccc2n1Cc1ccc(-n2c(C)nc3cnccc32)cc1 [Example 16]', 'inhibition at 10 µM', '20%');

Continue with the compound presented below.
Q: // inhibition at 10 µM lookup, key: CCc1nc2cnccc2n1-c1ccc(Cn2c(=O)sc3ccccc32)cc1 [Example 3]
Result: 72%
